The measurements presented in this section are drawn from ChEMBL document CHEMBL1141495.

Task for the reader: assign each of the following molecules its reported Ki.
test details: Displacement of [125I]TZDM from beta amyloid 42 fibril
Numbers only, in pM.

Cc1ccc2c(c1)C(=O)N(c1ccc(N(C)C)cc1)C2    760
CN(C)c1ccc(N2Cc3cc(F)ccc3C2=O)cc1    490

// for each molecule in input: emit Ki
1. COc1cc(N2Cc3ccc(C)cc3C2=O)ccc1N(C)C
2. CN(C)c1ccc(N2C(=O)c3ccccc3C2=O)cc1

// result
460
690

For every item below, please supply its Ki.
1. CC(C(=O)O)c1ccc(N2Cc3ccccc3C2=O)cc1 (configuration not stated)
2. CN(C)c1ccc(N2Cc3ccccc3C2=O)cc1
3. COc1cc(N2C(=O)c3ccc(F)cc3C2=O)ccc1N(C)C

// result
520
580
780

###

For each entry below, report its pKi value.
test details: Displacement of [125I]TZDM from beta amyloid 42 fibril
Give bare numbers, as −log10 of the molar value.

COc1cc(N2C(=O)c3ccc(Cl)cc3C2=O)ccc1N(C)C    9.15
COc1ccc2c(c1)C(=O)N(c1ccc(N(C)C)cc1)C2=O    9.15
CN(C)c1cccc(N2Cc3ccccc3C2=O)c1    9.24

Batch of 7 compounds: report pKi for each.
1. COc1ccc2c(c1)CN(c1ccc(N(C)C)cc1)C2=O
2. CN(C)c1ccc(N2Cc3ccc(Cl)cc3C2=O)cc1
3. COc1cc(N2C(=O)c3ccccc3C2=O)ccc1N(C)C
4. CN(C)c1ccc(N2C(=O)c3ccc(N(C)C)cc3C2=O)cc1
5. COc1ccc(N2Cc3ccccc3C2=O)cc1N(C)C
6. CN(C)c1ccc(N2Cc3ccc(F)cc3C2=O)cc1
7. COc1cc(N2C(=O)c3ccc(Br)cc3C2=O)ccc1N(C)C

// result
9.03
9.30
9.18
9.15
9.19
9.03
9.38

Give one value of pKi per listed compound.
1. CN(C)c1ccc(N2C(=O)c3ccc(F)cc3C2=O)cc1
2. COc1cc(N2Cc3ccccc3C2=O)ccc1N(C)C

// result
[9.25, 9.05]

###

Hi there, I'd appreciate the recorded Ki for every entry that follows.
test details: Displacement of [125I]TZDM from beta amyloid 42 fibril
One number for each entry, in nM.

COc1ccc(N2C(=O)c3ccccc3C2=O)cc1N(C)C    0.44
CN(C)c1ccc(N2Cc3cc(Cl)ccc3C2=O)cc1    0.76
Cc1ccc2c(c1)C(=O)N(c1ccc(N(C)C)cc1)C2=O    0.5
CNc1ccc(-c2nc3ccc(O)cc3s2)cc1 [PITTSBURGH COMPOUND B UNLABELLED]    0.7
CN(C)c1ccc(N2Cc3cc(Br)ccc3C2=O)cc1    0.81

Attention now shifts to the item below.
// query Supply Ki value. Item: CN(C)c1cccc(N2C(=O)c3ccccc3C2=O)c1
// result 0.46
